tested on: Carboxymethylcellulase 5430; test: Effects of metal ions on carboxymethylcellulase activity of Carboxymethylcellulase 5430; type: biochemical, Bacillus sp. PKM-5430; conditions: metal ion 1 mM; 20 minutes at 40° C., pH 9.0; none = 100
test readout: Relative activity (%)
Report as a plain number; the unit % is understood.

Lab note: need Relative activity (%) for [Ca+2] on Carboxymethylcellulase 5430, anyone have it?
108

Lab note: need Relative activity (%) for [Al+3] on Carboxymethylcellulase 5430, anyone have it?
101

---

# maps each entry to its Relative activity (%)
test system: Carboxymethylcellulase 5812; experiment: Effects of metal ions on carboxymethylcellulase activity of Carboxymethylcellulase 5812; type: biochemical, Bacillus sp. PKM-5812; conditions: metal ion 1 mM; 20 minutes at 40° C., pH 9.0; none = 100
Report as a plain number; the unit % is understood.

Examples with their reported Relative activity (%) follow.
[Mn+2] = 153
[Pb+2] = 93
[Al+3] = 97
[Co+2] = 150
[Ca+2] = 108
[Hg+2] = 27

I am curious: what Relative activity (%) value has been reported for [Mg+2] ?
109

I am curious: what Relative activity (%) value has been reported for [Zn+2] ?
96

I am curious: what Relative activity (%) value has been reported for [Cu+2] ?
98

I am curious: what Relative activity (%) value has been reported for [Fe+2] ?
101

---

Tested on: Carboxymethylcellulase 5812
Format: biochemical, Bacillus sp. PKM-5812
Details: inhibitor 1.0 mM; 20 minutes at 40° C., pH 9.0; none = 100
Experimental: Activities were determined by the DNS method (J. R. Summer and G. F. Somers, Laboratory Experiments in Biological Chemistry, Academic Press, New York, U.S.A., 1944). Namely, 0.1 ml of a suitably diluted enzyme solution was added to 0.9 ml of a 1.1% (w/v) solution of a CMC (A01MC) substrate in 0.1M glycine-NaOH buffer (pH: 9.0). […] Then, 4 ml of deionized water was added further, afterwhich, colorimetry was conducted by measuring an absorbance at 535 nm. […]
# maps each entry to its Relative activity (%)

Examples with their reported Relative activity (%) follow.
[N-]=[N+]=[N-] [Sodium azide] = 117%
Cl.NO [Hydroxylamine hydrochloride] = 123%
O=C(O)c1cc[c]([Hg][Cl])cc1 = 105%

Pending molecule:
I am curious: what Relative activity (%) value has been reported for O=S(=O)(F)Cc1ccccc1 [Phenylmethanesulfonyl fluoride, phenylmethanesulfonyl fluoride] ?
107%

---

test system: Carboxymethylcellulase 5430; format: biochemical, Bacillus sp. PKM-5430; conditions: inhibitor 1.0 mM; 20 minutes at 40° C., pH 9.0; none = 100
test readout: Relative activity (%)
Report as a plain number; the unit % is understood.

Examples with their reported Relative activity (%) follow.
O=S(=O)(F)Cc1ccccc1 [Phenylmethanesulfonyl fluoride, phenylmethanesulfonyl fluoride] = 76
O=C(O)c1cc[c]([Hg][Cl])cc1 [4-Chloromercuribenzoic acid] = 118

I am curious: what Relative activity (%) value has been reported for [N-]=[N+]=[N-] [Sodium azide] ?
118

I am curious: what Relative activity (%) value has been reported for Cl.NO [Hydroxylamine hydrochloride] ?
133

---

test system: Carboxymethylcellulase 5430; assay: Effects of metal ions on carboxymethylcellulase activity of Carboxymethylcellulase 5430; type: biochemical, Bacillus sp. PKM-5430; settings: metal ion 1 mM; 20 minutes at 40° C., pH 9.0; none = 100
test readout: Relative activity (%)
Report as a plain number; the unit % is understood.

Examples with their reported Relative activity (%) follow.
[Mg+2] = 108
[Cu+2] = 97

I am curious: what Relative activity (%) value has been reported for [Pb+2] ?
81

---

test system: Carboxymethylcellulase 5430; experiment: Effects of metal ions on carboxymethylcellulase activity of Carboxymethylcellulase 5430; type: biochemical, Bacillus sp. PKM-5430; conditions: metal ion 1 mM; 20 minutes at 40° C., pH 9.0; none = 100
# maps each entry to its Relative activity (%)
Report as a plain number; the unit % is understood.

Examples with their reported Relative activity (%) follow.
[Fe+2] = 105
[Co+2] = 149
[Hg+2] = 25

I am curious: what Relative activity (%) value has been reported for [Mn+2] ?
130

I am curious: what Relative activity (%) value has been reported for [Zn+2] ?
92

Where these numbers come from: patent US5439816A
